Molecular target: T1, human GIP receptor (human, UniProt P48546 22-466)
T1 sequence (looked up): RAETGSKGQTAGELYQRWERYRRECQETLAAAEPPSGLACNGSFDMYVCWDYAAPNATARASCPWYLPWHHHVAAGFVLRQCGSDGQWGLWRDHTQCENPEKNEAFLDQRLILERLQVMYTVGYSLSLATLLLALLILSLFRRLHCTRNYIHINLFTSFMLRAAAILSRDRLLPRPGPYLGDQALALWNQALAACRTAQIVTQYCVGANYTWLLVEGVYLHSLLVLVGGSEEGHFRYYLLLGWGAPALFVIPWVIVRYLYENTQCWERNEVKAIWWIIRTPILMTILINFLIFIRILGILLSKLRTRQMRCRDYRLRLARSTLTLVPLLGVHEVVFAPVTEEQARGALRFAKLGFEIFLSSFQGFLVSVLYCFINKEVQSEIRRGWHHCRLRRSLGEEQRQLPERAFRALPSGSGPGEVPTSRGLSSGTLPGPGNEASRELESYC
Assay: cell-based or functional assay
Starred links: 1 amine or outer side, 2 acyl side, 3 side chain; linkers in the order of their positions; H or OH if unused. Non-standard residues stand in square brackets, D forms with d. Groups on a side chain read outwards from the residue. No end group written: not given here. *: point of attachment. C20 diacid = O=C(O)CCCCCCCCCCCCCCCCCCC(=O)*; C18 diacid = O=C(O)CCCCCCCCCCCCCCCCC(=O)*; γGlu = O=C(O)[C@H](CCC(=O)[*:2])N[*:1]; εLys = N[C@@H](CCCCN[*:1])C(=O)[*:2]; AEEA = NCCOCCOCC(=O)O; Aib = CC(C)(N)C(=O)O
# EC50 CreLuc hGIPR 100% hP annotations
Include the unit right after the number.

Query string: Endpoint output: EC50 CreLuc hGIPR 100% hP of Y[Aib]EGTFTSDYSI[Aib]LEKQAQ[Aib]AFVQWLIKGGPSSGASLRHYYNWLTRQRY-NH2 (not fully specified (residue 28)) [Compound 147] . Value?
Result string: 1.6 nM

Query string: Please report the recorded EC50 CreLuc hGIPR 100% hP for YXEGTFTSDYSIXLEKQAQXAFVQWLIKGGPSEPASLRHYYNWLTRQRY (Aib at 2, 13, 20; K28 side chain: C18DA-gGlu-gGlu-gGlu-gGlu-gGlu-OEG-OEG; C-terminal NH2) [Compound 142] .
Result string: 1.15 nM

Query string: Field request: EC50 CreLuc hGIPR 100% hP | item: YXEGTFTSDYSIXLEGQAQXAFVEWLIKGGPSSGASLRHYYNWLTRQRY (Aib at 2, 13, 20; K28 side chain: C20DA-gGlu-gGlu-gGlu-gGlu-gGlu-gGlu-eLys; C-terminal NH2) [Compound 99]
Result string: 8.52 nM

Query string: # lookup: EC50 CreLuc hGIPR 100% hP of YXEGTFTSDYSIXLEKQAQXAFVEWLIKGGPSEPESLRHYYNWLTRQRY (Aib at 2, 13, 20; K28 side chain: C20DA-gGlu-gGlu-gGlu-gGlu-gGlu-gGlu-eLys; C-terminal NH2) [Compound 122]
Result string: 1.53 nM

Query string: Query: EC50 CreLuc hGIPR 100% hP; subject: Y[Aib]EGTFTSDYSI[Aib]LEEQAQ[Aib]AFVEWLIK([εLys-γGlu-γGlu-γGlu-γGlu-C20 diacid])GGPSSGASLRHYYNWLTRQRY-NH2 [Compound 97]
Result string: 0.95 nM

Query string: Entry YXEGTFTSDYSIXLEKQAQXAFVEWLIKGGQSSGASLRHYYNWLTRQRY (Aib at 2, 13, 20; K28 side chain: C20DA-gGlu-gGlu-gGlu-gGlu-gGlu-gGlu-eLys; C-terminal NH2) [Compound 123] has what EC50 CreLuc hGIPR 100% hP?
Result string: 4.11 nM

Query string: Quick one: EC50 CreLuc hGIPR 100% hP for Y[Aib]EGTFTSDYSI[Aib]LEKQAQ[Aib]EFVEWLIK([εLys-γGlu-γGlu-γGlu-γGlu-γGlu-C18 diacid])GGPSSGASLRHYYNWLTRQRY-NH2 [Compound 159] ?
Result string: 0.91 nM

Query string: Data request, read-out EC50 CreLuc hGIPR 100% hP, for Y[Aib]EGTFTSDYSI[Aib]LEKQAQ[Aib]EFVEWLIK([AEEA-AEEA-γGlu-γGlu-γGlu-γGlu-C18 diacid])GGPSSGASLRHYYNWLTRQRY-NH2 [Compound 145]
Result string: 1.23 nM

Query string: Need EC50 CreLuc hGIPR 100% hP of Y[Aib]EGTFTSDYSI[Aib]LEKQAE[Aib]AFVQWLIK([εLys-γGlu-γGlu-γGlu-γGlu-γGlu-C18 diacid])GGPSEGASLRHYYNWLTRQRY-NH2 [Compound 138] , thanks.
Result string: 0.81 nM

Query string: Suppose we examine the binder YXEGTFTSDYSILLEKQAQXAFVEWLIKGGPSSGASLRHYYNWLTRQRY (Aib at 2, 20; K28 side chain: C20DA-gGlu-Glu-gGlu-gGlu-gGlu-gGlu-eLys; C-terminal NH2) [Compound 104] ; what EC50 CreLuc hGIPR 100% hP value has been reported?
Result string: 0.6 nM

The measurements presented in this section are drawn from patent US20240247080A1.
